Numbers sourced from ChEMBL document CHEMBL4325852.

Quick reference for Survival among some compounds
# tested on: ATP-dependent translocase ABCB1 (Homo sapiens, UniProt P08183)
# Sequence (P08183 whole entry): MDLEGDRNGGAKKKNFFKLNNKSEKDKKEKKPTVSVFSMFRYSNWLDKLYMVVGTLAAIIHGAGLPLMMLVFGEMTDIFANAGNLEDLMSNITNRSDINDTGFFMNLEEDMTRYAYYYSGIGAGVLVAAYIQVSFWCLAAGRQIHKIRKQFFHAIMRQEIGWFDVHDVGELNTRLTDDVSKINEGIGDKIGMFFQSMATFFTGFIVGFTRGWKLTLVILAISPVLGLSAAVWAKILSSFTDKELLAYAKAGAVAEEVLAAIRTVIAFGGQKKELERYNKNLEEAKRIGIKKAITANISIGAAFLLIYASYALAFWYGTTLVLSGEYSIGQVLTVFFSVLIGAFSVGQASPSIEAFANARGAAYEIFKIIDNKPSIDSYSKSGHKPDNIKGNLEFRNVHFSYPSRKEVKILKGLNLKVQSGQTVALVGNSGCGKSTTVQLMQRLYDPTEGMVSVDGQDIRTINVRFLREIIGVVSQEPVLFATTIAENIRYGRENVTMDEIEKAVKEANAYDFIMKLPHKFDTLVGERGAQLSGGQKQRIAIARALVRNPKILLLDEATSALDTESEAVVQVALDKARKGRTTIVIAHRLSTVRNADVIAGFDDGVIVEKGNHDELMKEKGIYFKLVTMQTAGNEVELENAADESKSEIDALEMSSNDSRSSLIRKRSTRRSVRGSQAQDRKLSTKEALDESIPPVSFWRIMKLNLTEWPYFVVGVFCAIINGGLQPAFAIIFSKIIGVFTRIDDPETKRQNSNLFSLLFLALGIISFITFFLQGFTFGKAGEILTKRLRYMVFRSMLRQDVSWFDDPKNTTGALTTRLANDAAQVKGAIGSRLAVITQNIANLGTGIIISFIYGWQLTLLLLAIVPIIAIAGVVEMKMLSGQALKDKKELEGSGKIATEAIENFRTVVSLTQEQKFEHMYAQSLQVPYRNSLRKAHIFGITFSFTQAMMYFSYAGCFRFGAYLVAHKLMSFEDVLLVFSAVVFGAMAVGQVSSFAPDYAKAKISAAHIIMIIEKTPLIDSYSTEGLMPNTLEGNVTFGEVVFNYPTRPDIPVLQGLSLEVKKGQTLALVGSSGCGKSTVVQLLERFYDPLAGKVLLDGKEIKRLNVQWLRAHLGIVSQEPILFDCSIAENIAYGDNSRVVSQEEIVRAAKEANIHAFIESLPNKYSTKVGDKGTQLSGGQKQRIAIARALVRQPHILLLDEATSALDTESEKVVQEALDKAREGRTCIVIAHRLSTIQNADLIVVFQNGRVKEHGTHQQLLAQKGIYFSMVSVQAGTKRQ
# test protocol: Reversal of P-gp-mediated multidrug resistance in human KBV cells assessed as potentiation of paclitaxel-induced cytotoxicity by measuring cell survival at 5 uM after 72 hrs by MTT assay (reference value: 104 +/- 8%)
# Assay type: cell-based
assay readout: Survival

smiles input	assay readout	value reported
CC(C)(O)[C@@H]1CC[C@@](C)([C@H]2CC[C@]3(C)[C@@H]2[C@H](O)C[C@@H]2[C@@]4(C)CC[C@H](NC(=O)c5ccccc5)C(C)(C)[C@@H]4CC[C@]23C)O1	Survival	90%
CC(C)(O)[C@H]1CC[C@@](C)([C@H]2CC[C@]3(C)[C@@H]2[C@H](O)C[C@@H]2[C@@]4(C)CC[C@H](NC(=O)CCCCCCCN)C(C)(C)[C@@H]4CC[C@]23C)O1	Survival	84%
CCCC(=O)N[C@H]1CC[C@]2(C)[C@H]3C[C@@H](O)[C@@H]4[C@@H]([C@]5(C)CC[C@H](C(C)(C)O)O5)CC[C@@]4(C)[C@]3(C)CC[C@H]2C1(C)C	Survival	89%
CC(C)(O)[C@H]1CC[C@@](C)([C@H]2CC[C@]3(C)[C@@H]2[C@H](O)C[C@@H]2[C@@]4(C)CC[C@H](NC(=O)CN)C(C)(C)[C@@H]4CC[C@]23C)O1	Survival	99%
CC(C)(O)[C@@H]1CC[C@@](C)([C@H]2CC[C@]3(C)[C@@H]2[C@H](O)C[C@@H]2[C@@]4(C)CC[C@H](NC(=O)CCCCCCCN)C(C)(C)[C@@H]4CC[C@]23C)O1	Survival	118%
CC(C)(C)OC(=O)Nc1ccc(C(=O)N[C@H]2CC[C@]3(C)[C@H]4C[C@@H](O)[C@@H]5[C@@H]([C@]6(C)CC[C@H](C(C)(C)O)O6)CC[C@@]5(C)[C@]4(C)CC[C@H]3C2(C)C)cc1	Survival	54%
CC(C)(C)OC(=O)NCC(=O)N[C@H]1CC[C@]2(C)[C@H]3C[C@@H](O)[C@@H]4[C@@H]([C@]5(C)CC[C@H](C(C)(C)O)O5)CC[C@@]4(C)[C@]3(C)CC[C@H]2C1(C)C	Survival	48%
CC(C)(O)[C@@H]1CC[C@@](C)([C@H]2CC[C@]3(C)[C@@H]2[C@H](O)C[C@@H]2[C@@]4(C)CC[C@H](N)C(C)(C)[C@@H]4CC[C@]23C)O1	Survival	102%
CC(C)(O)[C@@H]1CC[C@@](C)([C@H]2CC[C@]3(C)[C@@H]2[C@H](O)C[C@@H]2[C@@]4(C)CC[C@H](NC(=O)CCCN)C(C)(C)[C@@H]4CC[C@]23C)O1	Survival	111%
